Provenance of the data: patent EP1247803A2

Biological target: EGFR (Homo sapiens, UniProt P00533)
Construct: Add 7 ug A431 cell lysate per well (EGFR source); endogenous in cells; host or cells: A431
Sequence (P00533 25-1210): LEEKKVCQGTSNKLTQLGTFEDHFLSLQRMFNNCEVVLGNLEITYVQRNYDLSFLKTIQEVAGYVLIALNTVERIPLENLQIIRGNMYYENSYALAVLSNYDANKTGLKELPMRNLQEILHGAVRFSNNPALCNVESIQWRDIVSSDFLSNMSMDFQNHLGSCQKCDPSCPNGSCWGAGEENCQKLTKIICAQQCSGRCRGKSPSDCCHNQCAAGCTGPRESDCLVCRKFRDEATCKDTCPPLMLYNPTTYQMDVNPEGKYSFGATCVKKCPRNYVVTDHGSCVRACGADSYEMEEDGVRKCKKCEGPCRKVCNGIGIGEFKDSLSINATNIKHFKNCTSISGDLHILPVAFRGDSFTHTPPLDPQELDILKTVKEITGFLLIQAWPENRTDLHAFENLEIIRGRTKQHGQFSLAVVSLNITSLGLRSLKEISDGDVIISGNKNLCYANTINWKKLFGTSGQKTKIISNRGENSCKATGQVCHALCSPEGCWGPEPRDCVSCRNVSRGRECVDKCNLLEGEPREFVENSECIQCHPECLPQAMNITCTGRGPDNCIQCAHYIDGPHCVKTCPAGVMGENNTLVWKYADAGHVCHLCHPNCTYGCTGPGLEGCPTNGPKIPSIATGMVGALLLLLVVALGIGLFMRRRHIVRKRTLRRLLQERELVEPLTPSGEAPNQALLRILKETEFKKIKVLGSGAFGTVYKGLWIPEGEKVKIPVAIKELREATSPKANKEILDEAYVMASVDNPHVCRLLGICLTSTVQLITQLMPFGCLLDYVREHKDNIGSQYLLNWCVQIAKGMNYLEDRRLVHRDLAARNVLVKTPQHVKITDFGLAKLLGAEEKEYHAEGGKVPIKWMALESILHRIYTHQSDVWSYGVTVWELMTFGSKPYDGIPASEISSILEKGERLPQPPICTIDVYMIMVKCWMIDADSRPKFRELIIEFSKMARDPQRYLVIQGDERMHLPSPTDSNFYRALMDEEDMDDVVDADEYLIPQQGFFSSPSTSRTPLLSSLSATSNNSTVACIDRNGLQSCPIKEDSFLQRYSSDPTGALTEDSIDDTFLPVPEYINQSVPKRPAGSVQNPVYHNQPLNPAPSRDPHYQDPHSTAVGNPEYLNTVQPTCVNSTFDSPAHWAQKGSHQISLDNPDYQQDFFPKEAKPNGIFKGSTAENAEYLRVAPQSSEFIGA
Assay: EGFR ELISA assay (in vitro kinase activity, EGFR captured from A431 cell lysate)
Assay type: biochemical
Set-up: concentration or dose not given beside the values
Quick reference: Biochem EGFR %Inhibition of the listed items.

Below, each entry is followed by its recorded Biochem EGFR %Inhibition result.
O=C1Nc2ccc(CCCl)cc2C1=Cc1ccc2c(c1)Cc1ccccc1-2; -14.1%
O=C1Nc2ccc(I)cc2C1=Cc1ccc(C(=O)O)cc1; 9.3%
O=C1Nc2ccc(S(=O)(=O)Nc3ccc(C(F)(F)F)cc3)cc2C1=Cc1c(F)cc(F)cc1F; 25.2%
COc1ccc(C=C2C(=O)Nc3c(Br)cc(Br)cc32)cc1C(C)(C)C; 4.6%
COC(=O)Cc1c(Cl)[nH]c(C=C2C(=O)Nc3ccc(CCCl)cc32)c1C(=O)OC; 6.5%

Recorded result, Cc1c(Br)ccc2c1C(=Cc1ccc(Br)cc1)C(=O)N2 , Biochem EGFR %Inhibition: 24.3%

Sample CN(C)c1ccc(C=C2C(=O)Nc3ccc(I)cc32)cc1 ; Biochem EGFR %Inhibition observed: 42.3%

Reported Biochem EGFR %Inhibition for O=C1Nc2c(Br)cc(Br)cc2C1=Cc1cc(C(F)(F)F)ccc1F was 24.1%

// Cc1c(Br)ccc2c1C(=Cc1ccc(N3CCCC3)cc1)C(=O)N2 : Biochem EGFR %Inhibition value = 45.7%

The reported value for O=C1Nc2ccc(S(=O)(=O)Nc3ccc(C(F)(F)F)cc3)cc2C1=Cc1cc2ccccc2o1 in terms of Biochem EGFR %Inhibition is 9.4%

Recorded result, CC(=O)Oc1ccc(C=C2C(=O)Nc3ccc(CCCl)cc32)cc1OC(C)=O , Biochem EGFR %Inhibition: 1.3%

Input O=C1Nc2ccc(I)cc2C1=Cc1ccc(Cl)c([N+](=O)[O-])c1 . Output Biochem EGFR %Inhibition: 28.9%

What the record says about CC(C)(C)c1cc(C=C2C(=O)Nc3ccc(S(=O)(=O)Nc4ccc(C(F)(F)F)cc4)cc32)ccc1O : Biochem EGFR %Inhibition is 42.5%

For record O=C(O)COc1ccccc1C=C1C(=O)Nc2ccc(CCCl)cc21 the listed Biochem EGFR %Inhibition is -12.5%

Summary for this compound, Cc1c(Br)ccc2c1C(=Cc1c[nH]cn1)C(=O)N2 : Biochem EGFR %Inhibition is -22.1%

====

Target: FLK-1 receptor (Mus musculus)
Construct: expressed in transfected cells; host or cells: NIH3T3 C7#3
Sequence (P35918 20-1345): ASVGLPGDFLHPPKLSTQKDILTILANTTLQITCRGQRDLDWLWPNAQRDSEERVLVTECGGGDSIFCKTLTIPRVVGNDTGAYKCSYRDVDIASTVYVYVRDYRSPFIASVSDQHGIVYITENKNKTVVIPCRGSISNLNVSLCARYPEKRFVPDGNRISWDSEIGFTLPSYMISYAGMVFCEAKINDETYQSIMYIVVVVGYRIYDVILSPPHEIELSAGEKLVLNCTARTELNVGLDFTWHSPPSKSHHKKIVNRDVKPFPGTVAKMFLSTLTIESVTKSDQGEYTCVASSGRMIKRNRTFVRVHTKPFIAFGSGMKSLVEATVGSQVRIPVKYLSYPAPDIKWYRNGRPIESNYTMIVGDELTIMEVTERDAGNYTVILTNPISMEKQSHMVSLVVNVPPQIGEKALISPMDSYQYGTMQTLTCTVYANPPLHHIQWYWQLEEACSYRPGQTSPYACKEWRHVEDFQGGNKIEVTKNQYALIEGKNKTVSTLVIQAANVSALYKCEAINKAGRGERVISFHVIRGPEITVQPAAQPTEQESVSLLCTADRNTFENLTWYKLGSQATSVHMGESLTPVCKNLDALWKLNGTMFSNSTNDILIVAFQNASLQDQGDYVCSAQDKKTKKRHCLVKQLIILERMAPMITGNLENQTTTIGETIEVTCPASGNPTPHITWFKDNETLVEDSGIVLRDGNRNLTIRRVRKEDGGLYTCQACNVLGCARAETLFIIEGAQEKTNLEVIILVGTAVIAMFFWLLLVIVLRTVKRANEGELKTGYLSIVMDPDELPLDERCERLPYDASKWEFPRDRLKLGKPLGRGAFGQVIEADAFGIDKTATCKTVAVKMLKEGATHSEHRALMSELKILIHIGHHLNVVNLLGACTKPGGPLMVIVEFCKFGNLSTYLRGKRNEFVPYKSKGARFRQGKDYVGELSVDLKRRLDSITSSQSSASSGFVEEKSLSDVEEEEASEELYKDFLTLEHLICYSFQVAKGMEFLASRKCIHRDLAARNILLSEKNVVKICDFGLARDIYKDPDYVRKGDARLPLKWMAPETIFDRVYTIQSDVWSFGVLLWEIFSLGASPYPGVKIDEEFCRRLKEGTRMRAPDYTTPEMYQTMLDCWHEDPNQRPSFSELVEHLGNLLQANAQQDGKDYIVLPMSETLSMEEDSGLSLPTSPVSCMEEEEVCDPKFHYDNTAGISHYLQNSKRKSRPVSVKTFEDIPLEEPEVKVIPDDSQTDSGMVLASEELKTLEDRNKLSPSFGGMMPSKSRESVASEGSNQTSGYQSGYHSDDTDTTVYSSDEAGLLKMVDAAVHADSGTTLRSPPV
Assay: FLK-1 ELISA (kinase activity of the FLK-1 receptor in FLK-1/NIH3T3 cells, VEGF stimulated)
Format: cell-based
ATTRIBUTE MEASURED: Fik Kinase %Inhibition (%)
Respond numerically; units are % and should not be typed.

Please review the entries below; each comes with its answer.
CCOC(=O)c1cc(C=C2C(=O)Nc3c(Br)cc(Br)cc32)oc1C; 7.8
CNS(=O)(=O)c1ccc2c(c1)C(=Cc1ccc(F)cc1F)C(=O)N2; 21.9
O=C1Nc2ccc(CCCl)cc2C1=Cc1ccccn1; -2.5
CNS(=O)(=O)c1ccc2c(c1)C(=Cc1c(O)cc(O)cc1O)C(=O)N2; 15.0
O=C1Nc2ccc(S(=O)(=O)N3CCOCC3)cc2C1=Cc1ccc(O)c(O)c1; 11.2
O=C1Nc2c(Br)cc(Br)cc2C1=Cc1cc2c(cc1Cl)OCO2; -17.1
O=C1Nc2ccc(S(=O)(=O)N3CCOCC3)cc2C1=Cc1ccc2ccccc2c1O; 9.4
O=C1Nc2ccc(I)cc2C1=CC1C=CCCC1 (stereo not shown); 7.8

Record summary for COc1cccc(OC)c1C=C1C(=O)Nc2ccc(S(=O)(=O)Nc3ccc(C(F)(F)F)cc3)cc21 : reported Fik Kinase %Inhibition = 13.2

Value of measured Fik Kinase %Inhibition for the entry CNS(=O)(=O)c1ccc2c(c1)C(=Cc1ccc(OCc3ccccc3)c(C(C)(C)C)c1)C(=O)N2 : 16.3
